The measured values listed here are drawn from the supplement of paper PMC9170038.

- Test system: K4 kissing-loop RNA reporter
- assay: apparent KD of K4 kissing-loop reporter; higher = weaker reporter binding
- assay_conditions: Eterna round: R107; input ligand: none
Please enter 1.0 where apparent KD of K4 kissing-loop reporter is greater than or equal to 200 nM, and 0.0 where it is lower.

{"monomer_sequence": "AAGGUUUAGCACGAUACCAGCCUGGAGGCCAGUGAUGUUGGCCGAUUUGAACAGAAUUAAGGCCCUUGGCAGCGUCUCUAAAACC [Dierra]", "discrete_label": 0.0}
{"monomer_sequence": "ACGUCCGGGUUAAUCGUGGGCGUGGUGGAUACCAGUUCUUCAAUGAACCCUUGGCAGCCACGUGAGUGAUGUUCACGUGCGAUGA [#15 K4 Theophylline A Exclusion]", "discrete_label": 0.0}
{"monomer_sequence": "GCCGUAGAUUGAAGGAGCGCCAUCUUACCAAGAGUGAUGUUCUUUGGUACCAUGUACAGCUGGCAGGUAGGUCGCAAUCUACGGC", "discrete_label": 0.0}
{"monomer_sequence": "UGAUACCAGACUGAUACCAGCGAGUGAUGUUUGUUGAUCAUAAGCAGUCAAAGACUGCUUUGCCCUUGGCAGCAGUCUGGUAUCU [#11 K4 Theophylline B Exclusion]", "discrete_label": 1.0}
{"monomer_sequence": "AAGACCUGCAUCGAUACCAGCCCAGUGAUGUUGGGCUGCUCUCCAUGGGUGCCAGACACGGGCCCUUGGCAGCGAGGUAGGGCCC [Zazadilabi]", "discrete_label": 0.0}
{"monomer_sequence": "UAAGAAUAAGUAGCAGUGAUGUUGCUACUACGAGGACCGGUACGGCCGCCACUCGAGCCGUACCAUAACAUCACUGAGGUACGAA [(H1)-(H2)-(Trp1)-(Trp2)-(T)'-(H)'-(T)'']", "discrete_label": 1.0}
{"monomer_sequence": "ACGCCGAGGACGGCCGCCACUAUGACGAAGUCCGUUCCUAUUACUGCGCGAGUGAUGUUCACGACUAGGACCGGGUCUAUGAGCU [theeternabot_exclusion_KL_Trp_B_28]", "discrete_label": 1.0}
{"monomer_sequence": "AAAAUAAACCAGUGAUGUUGGUAUCCAGAUACCAGCGACGAAAGUCGCCCUUGGCAGCUGUGGACGUACAAAAUAAGUACGUCCU", "discrete_label": 1.0}
{"monomer_sequence": "AAGCAGUCACUCGACACCAUCGAAGAUGGGCGAGGACCGGUACGGCCGCCACUCGGAGUGAUGUUCUGAUGACUGCAAAAUAAAA [MatMod 9 - Jieux - Exclusion - Tryptophan A]", "discrete_label": 0.0}
{"monomer_sequence": "GCACUACAAUAAGGAUAUCAUAAAAUGGAGAGCGAGUGAUGUUCGCAGAGACACCUAUUUUUCCUAUGAGAAGGUAUUAACGCCG [theeternabot_sameState_KL_FMN_B_40]", "discrete_label": 0.0}
{"monomer_sequence": "GAGGUACAGGCGGCCGCCACUAGUGAUGUUAGUGAUGUUUGAUACUGUAUAUAUCGGCGUGUAGAUAGGACCGGGCCUGAUGGAG [znmkmullin]", "discrete_label": 0.0}
{"monomer_sequence": "CCGGGCGGCUGAAGGAGCGGGCGGGCCCGAGUGAUGUUCGGGUGGGCCGUGAGGCCCGGAGCCCAGGUAGGUCGCGGUUCCGUCC [#2 Same State - Arginine B Attempt #18 (HarryS)]", "discrete_label": 0.0}

---

- System: K4 kissing-loop RNA reporter
- assay: apparent KD of K4 kissing-loop reporter; higher = weaker reporter binding
- assay_conditions: Eterna round: R107; input ligand: FMN 200 uM
# reported apparent KD of K4 kissing-loop reporter; entries follow

{"monomer_sequence": "GGUAGCAUGGCGGCCGCCACUACCUAGUGAUGUUAGGCUGUGGACAUAGGAGCAAGAUAAAUAUGUAGGACCGGGCCAUGCUACC", "apparent KD of K4 kissing-loop reporter, nM": 129}
{"monomer_sequence": "GGGUCUGUCGGAAGGAGCGCGCUAUGGAGUGAUGUUCCAUGACCGUACAGCUUACGGUCAGCGCAGGUAGGUCGCCGAUAGCGUU [Geordiar]", "apparent KD of K4 kissing-loop reporter, nM": 153}
{"monomer_sequence": "UGGAGUUGACGAAAAGUCAACUCCUGAGAAGGAGCGGACGAAAGUCCAGGUAGGUCGCUCACUACCAGUGAUGUUGGUACUUAAA [#OpenEnded 4]", "apparent KD of K4 kissing-loop reporter, nM": 152}
{"monomer_sequence": "GGCGGCUGCGCGGAAGCGCAGCCGGCCGAUACCAGCGCGACGGCGCGCCCUUGGCAGCGGCGCCGAGUGAUGUUCGGCCUGCCGU [#2 Same State - Theophylline A Attempt #21 (HarryS)]", "apparent KD of K4 kissing-loop reporter, nM": 122}
{"monomer_sequence": "CAGCGGAGUGAUGUUCUGCUUACUGCGGAUACCAGCUUCGCCAGAGGCCCUUGGCAGCCGGGCGGCUCAGUGAUGUUGGGUUGCU [Same State Theophylline A GF 15]", "apparent KD of K4 kissing-loop reporter, nM": 536}
{"monomer_sequence": "AUGACUCAAUAGUGAGUGAUGUUCACUGGACGAGGACCGGUACGGCCGCCACUCGAGAGUGGUGGACACUGUGUCACUGAGUCAU [Tryp A Ex t1]", "apparent KD of K4 kissing-loop reporter, nM": 180}

---

- Tested on: K4 kissing-loop RNA reporter;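 note: bound reporter read as fluorescence of individual clusters on recovered sequencing chips by microscopy, with normalized cluster intensities fitted with a binding model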
- assay: apparent KD of K4 kissing-loop reporter; higher = weaker reporter binding
- assay_conditions: Eterna round: R107; input ligand: tryptophan 2.4 mM
assay_endpoint: apparent KD of K4 kissing-loop reporter (nM)

{"monomer_sequence": "CUUGGCAUGCGCGAUACCAGCGAACAUAGCAAGCUACGGGUAGUGAUGUUAUCUGAAUAACGCCCUUGGCAGCGCACAUGCCGGC [clock]", "assay_endpoint": "apparent KD of K4 kissing-loop reporter", "val": 712}
{"monomer_sequence": "AAAAUAAAGGAGUGAUGUUCCAUAACGGAUACCAGCCACGAAAGUGGCCCUUGGCAGCUGUGCCAGUGGACGAAUAACGUCCACA [#OpenEnded 6 #StaticStem #K4Early]", "assay_endpoint": "apparent KD of K4 kissing-loop reporter", "val": 164}
{"monomer_sequence": "GUGCAAAGCACCGGCACGAGCAGCUUAAAGGAGGAUAUGACGAAAGUCAGAAGGUUUAGUGAUGUUAGGCCUUGCUUGAGUCGAA [#01 K4 FMN A Exclusion]", "assay_endpoint": "apparent KD of K4 kissing-loop reporter", "val": 270}
{"monomer_sequence": "GGAUCCACCAGUGAUGUUGGAGAAAACUCGAAGGAUAUGACGAAAGUCAGAAGGUCGUAGACUGGACAAAGUCCGGUCGGAUCCA [FmnA 19 G30+C56]", "assay_endpoint": "apparent KD of K4 kissing-loop reporter", "val": 461}
{"monomer_sequence": "UAACGCUGACAGCAACAAUUCGGGCCUGAUACCAGCAAUUUUUCAUGCCCUUGGCAGCAGAGUGAUGUUUUCUGUCUAUUUAGUC [theeternabot_exclusion_KL_Theo_A_23]", "assay_endpoint": "apparent KD of K4 kissing-loop reporter", "val": 520}
{"monomer_sequence": "AGCGCUGCCUGAGGAUAUAGAAACGAGUGAUGUUCGUGGAUUGAUACCAGUGAUGUUGGCCUAUUUCUAGAAGGCAGGCGAUCGU [Exclusion FMN B GF2]", "assay_endpoint": "apparent KD of K4 kissing-loop reporter", "val": 114}
{"monomer_sequence": "UGUACCGAGUGAGGAUAUGUCGUCGAAAGACGAAAUGGAGUGAUGUUCCUUAAACUGCGAAAGCAGACAGAAGGUACUUGGUACU [FmnBS 29 G11+U75]", "assay_endpoint": "apparent KD of K4 kissing-loop reporter", "val": 275}
{"monomer_sequence": "UGUCAUUGGUCGGCCGCCACUUCAUAAAAGAGUGAUGUUCUAAAGACGGAUCGAAAGAUCUGUCGAAGGACCGGGACCGAUGACU [TrypBS 19 #SwitchBubble #StaticStem]", "assay_endpoint": "apparent KD of K4 kissing-loop reporter", "val": 753}
{"monomer_sequence": "CACGUUUACCAAGGAUAUGGUCUGCCGCGGAACCGUUCAAGUGAUGUUUGAUUCGAGUAUUAAUCUCCAGAAGGUGGUAGUACAG [theeternabot_exclusion_KL_FMN_B_6]", "assay_endpoint": "apparent KD of K4 kissing-loop reporter", "val": 342}
{"monomer_sequence": "UGCGCUAUGUCCUAAAACGUCCUCCGGGAUACCAGUGUCUUUUUAUACCCUUGGCAGCUUGAGUGAUGUUUGAUGCCGUUCUUGU [izzxmullin]", "assay_endpoint": "apparent KD of K4 kissing-loop reporter", "val": 304}
{"monomer_sequence": "AUUGCGGCCGUUCUAUCACCAGGCGGAGAUACCAGAUGCCAGCAGAUCCCUUGGCAGCUCUGCACGAGAUCCAGUGAUGUUGGGU [theeternabot_exclusion_KL_Theo_A_9]", "assay_endpoint": "apparent KD of K4 kissing-loop reporter", "val": 276}
